Molecular target: T1, macaca fascicularis (mf) PRLR.mmh (soluble monomeric monkey PRLR) (Macaca fascicularis)
T1 construct: called soluble monomeric PRLR protein
T1 chain: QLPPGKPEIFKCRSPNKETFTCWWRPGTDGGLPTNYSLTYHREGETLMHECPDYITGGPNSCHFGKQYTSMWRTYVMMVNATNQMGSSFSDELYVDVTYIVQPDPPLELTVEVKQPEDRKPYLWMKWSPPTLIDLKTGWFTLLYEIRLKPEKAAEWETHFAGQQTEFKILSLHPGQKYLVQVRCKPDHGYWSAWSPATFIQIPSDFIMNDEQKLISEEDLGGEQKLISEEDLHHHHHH
Test: SPR Biacore, 25 C, mAb capture
Note to self: values exactly at 20 min are yes. So T½ at or above 20 min is yes, below is no.

# example entries with known answers
H1H6975N (antibody, human IgG1, V domains shown, Tested with human IgG1 Fc (H1H); also called H2M6975N) VH: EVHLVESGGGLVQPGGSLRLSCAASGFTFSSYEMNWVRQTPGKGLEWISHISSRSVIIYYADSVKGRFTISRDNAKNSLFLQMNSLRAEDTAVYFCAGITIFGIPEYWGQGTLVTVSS VL: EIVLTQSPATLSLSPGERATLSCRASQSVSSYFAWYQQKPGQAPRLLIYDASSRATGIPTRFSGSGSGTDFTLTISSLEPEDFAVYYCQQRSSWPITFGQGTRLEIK    yes
H1H6795P (antibody, human IgG1, V domains shown, Human IgG1 Fc (H1H)) VH: QVQLVQSGAEVKKPGASVKVSCKASGYTFGTSGITWVRQAPGQGLEWMGWSSAYNGKTDYAQKFQDRVTMTTDTSTTTGYMEMRSLTSDDTAVYYCTTVVRRPFDFWGQGTLVTVSS VL: DIQMTQSPSSLSASVGDRVTITCRASQDINNFLAWFQQKPGKAPKSLIYAASSLQSGVPSKFSGGGSGTDFALTISSLQPEDFATYYCQQYSSYPITFGQGTRLEIK    no
H1H6797P (antibody, human IgG1, V domains shown, Human IgG1 Fc (H1H)) VH: EVQLVESGGGLVQPGGSLRLSCIVSGFTFSGSWMSWVRQLPGKGLEWVANIKEDGSDSYYVDSVEGRFTISRDNAKSSLYLQMNSLRVDDTAVYFCARARTVPLHYWGQGTLVTVSS VL: DIQMTQSPSTLSASVGDRVTITCRASQSINIWLAWYQQKPGKAPKLLIYRASYLESGVPSSFAGGGSGTEFTLTISSLQPDDFGTYYCQHYNSYPFTFGQGTKLEIK    no
H1H6785P (antibody, human IgG1, V domains shown, Human IgG1 Fc (H1H)) VH: EVQLVESGGGLVQPGGSLRLSCAASGFTFSSYEMNWVRQAPGKGLEWISYISSRGGTIYYADSIKGRFTIYRDNARNSLYLQMNSLRAEDTAIYYCARLSGVDIFDIWGQGTMVTVSS VL: DIQMTQSPSSLSASVGDRVTITCRASQGISNYLAWYQQKPGKVPKLLIYFASTLQSGVPSRFSGGGSGTDFTLTISSLQPEDVATYYCQRYNSAPLTFGGGTKVEIK    yes
H1H6781P (antibody, human IgG1, V domains shown, Human IgG1 Fc (H1H)) VH: EVQLVESGGDLVQPGESLRLSCTASGFTFNSYEMNWVRQAPGKGLEWVSYISSSGGTKYYVDSVKGRFTISRDNAKKSLYLQMNSLRADDTALYYCARLNGVDVFDIWGQGTMVTVSS VL: DIQMTQSPSSLSASVGDRVTITCRASQDIFNYLAWFQQKPGKVPELLISAASTLQSGVPSRFSGSGSGTYFTLTISSLQPEDIATYYCQRYNSAPLTFGGGTKVEIK    yes
H1H6958N2 (antibody, human IgG1, V domains shown, Tested with human IgG1 Fc (H1H); also called H2M6958N2) VH: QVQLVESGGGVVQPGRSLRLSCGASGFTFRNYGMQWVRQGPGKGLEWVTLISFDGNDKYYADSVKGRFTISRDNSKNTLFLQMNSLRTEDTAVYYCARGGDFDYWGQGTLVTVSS VL: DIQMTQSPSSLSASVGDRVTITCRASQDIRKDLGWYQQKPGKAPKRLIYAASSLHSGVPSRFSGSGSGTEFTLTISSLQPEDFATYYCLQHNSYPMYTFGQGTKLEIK    yes
H1H6774P (antibody, human IgG1, V domains shown, Human IgG1 Fc (H1H)) VH: EVQLVESGGGLAQPGGSLRLSCVASGFTFSTYWMSWVRQAPGKGLDWVGNIKQDGSEQNYVDSVRGRFTISRDNAKNSLFLQMNSLRAEDTGVYYCATLLTKGDYWGQGTLVTVSS VL: DIQMTQSPSSLSASVGDSVTITCRASQDISNYLDWFQQKPGKAPKSLIYAASILQGGVPSRFSGSGYGTDFTLTISSLQPEDFATYYCRQYKTYPFTFGPGTKVDIK    no
H1H6953N (antibody, human IgG1, V domains shown, Tested with human IgG1 Fc (H1H); also called H1M6953N) VH: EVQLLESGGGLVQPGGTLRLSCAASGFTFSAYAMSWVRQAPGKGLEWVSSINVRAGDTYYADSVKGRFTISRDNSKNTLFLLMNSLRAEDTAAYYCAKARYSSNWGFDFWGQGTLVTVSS VL: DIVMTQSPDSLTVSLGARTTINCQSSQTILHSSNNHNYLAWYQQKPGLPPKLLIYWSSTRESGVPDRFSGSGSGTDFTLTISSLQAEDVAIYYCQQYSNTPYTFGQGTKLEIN    yes

For the next question, use this binder.
Check if T½ >= 20 min (inclusive). Item: H1H6792P (antibody, human IgG1, V domains shown, Human IgG1 Fc (H1H)) VH: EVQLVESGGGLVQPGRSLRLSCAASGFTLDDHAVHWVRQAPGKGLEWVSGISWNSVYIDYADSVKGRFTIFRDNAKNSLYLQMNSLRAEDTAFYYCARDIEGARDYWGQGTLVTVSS VL: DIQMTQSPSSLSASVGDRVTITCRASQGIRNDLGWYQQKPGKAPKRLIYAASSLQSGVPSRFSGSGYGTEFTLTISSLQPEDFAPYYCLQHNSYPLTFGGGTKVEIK
no
